Reference for the values: patent US10660877B2

biological target: human TLR7 (Homo sapiens (Human), UniProt Q9NYK1); assay: TLR7 inhibition reporter assay (HEK-Blue cells, SEAP reporter, gardiquimod stimulation); type: cell-based; settings: HEK-Blue cells, gardiquimod 7.5 μM
Sequence (Q9NYK1 27-1049): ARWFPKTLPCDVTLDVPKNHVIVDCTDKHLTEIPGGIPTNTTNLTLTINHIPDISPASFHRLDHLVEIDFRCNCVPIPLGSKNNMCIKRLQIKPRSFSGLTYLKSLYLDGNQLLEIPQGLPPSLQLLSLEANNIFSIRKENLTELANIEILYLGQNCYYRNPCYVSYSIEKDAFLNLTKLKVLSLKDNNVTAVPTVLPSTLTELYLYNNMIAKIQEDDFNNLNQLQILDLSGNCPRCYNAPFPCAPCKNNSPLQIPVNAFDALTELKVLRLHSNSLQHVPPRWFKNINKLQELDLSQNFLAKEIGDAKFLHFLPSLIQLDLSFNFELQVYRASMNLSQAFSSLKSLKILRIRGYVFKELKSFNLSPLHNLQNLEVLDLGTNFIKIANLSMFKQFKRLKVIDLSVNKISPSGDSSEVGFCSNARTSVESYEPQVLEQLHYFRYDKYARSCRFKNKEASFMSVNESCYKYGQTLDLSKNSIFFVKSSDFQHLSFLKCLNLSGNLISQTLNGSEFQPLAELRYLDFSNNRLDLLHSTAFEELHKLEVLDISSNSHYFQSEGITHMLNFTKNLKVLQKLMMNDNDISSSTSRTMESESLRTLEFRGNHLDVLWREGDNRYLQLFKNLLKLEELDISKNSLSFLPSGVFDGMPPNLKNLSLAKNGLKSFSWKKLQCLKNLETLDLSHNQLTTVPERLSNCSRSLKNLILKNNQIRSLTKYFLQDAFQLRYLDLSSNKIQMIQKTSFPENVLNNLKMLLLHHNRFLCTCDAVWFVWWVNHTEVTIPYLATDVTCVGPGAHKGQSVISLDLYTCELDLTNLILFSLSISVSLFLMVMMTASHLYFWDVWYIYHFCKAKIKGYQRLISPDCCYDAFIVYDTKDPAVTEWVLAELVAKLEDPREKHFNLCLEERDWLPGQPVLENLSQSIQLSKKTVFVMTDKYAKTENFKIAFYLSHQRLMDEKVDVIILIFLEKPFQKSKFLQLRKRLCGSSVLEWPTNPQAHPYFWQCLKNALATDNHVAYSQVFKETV
Please respond with reported IC50 for every item in the list.
One number for each entry, in nM.

Look over these answered cases.
Cc1cc(-c2[nH]c3cc(F)c(C4CCN(C5CC(C)OC(C)C5)CC4)cc3c2C(C)C)cc(C)n1 (centres unmarked) [Example 830] | 4.8
Cc1cc(-c2[nH]c3ccc(C4CCN(C(=O)C(=O)N(C)C)CC4)cc3c2C(C)C)ccn1 [Example 878] | 55.1
CC(=O)N1CCC(N2CCC(c3ccc4[nH]c(-c5ccnc(C)c5)c(C(C)C)c4c3)CC2)CC1 [Example 827] | 12.7
Cc1cc(-c2[nH]c3ccc(C4CCN(CC5CCN(C(C)C)CC5)CC4)c(F)c3c2C(C)C)ccn1 [Example 874] | 15.4

Field: next compound
[in] What value of IC50 has been reported for the following compound? Cc1cc(-c2[nH]c3ccc(C4CCN(C(=O)C(=O)NCCc5ccncc5)CC4)cc3c2C(C)C)cc(C)n1 [Example 860]
[out] 9.7

----------
target: human TLR7 (Homo sapiens (Human)); assay: TLR7 inhibition reporter assay (HEK-Blue cells, SEAP reporter, gardiquimod stimulation); type: cell-based; details: HEK-Blue cells overexpressing human TLR7, gardiquimod 7.5 μM
Please respond with reported pIC50 for every item in the list.
Answers are plain numbers, as −log10 of the molar value.

Items follow; give pIC50 for each.
1. CNC(=O)C(=O)N1CCC(c2ccc3[nH]c(-c4cc(C)nc(C)c4)c(C(C)C)c3c2)CC1 [Example 205]
2. Cc1cc(-c2[nH]c3ccc(C4CCN(C(=O)CNCC5(C)CC5)CC4)cc3c2C(C)C)cc(C)n1 [Example 365]
3. Cc1nccc(-c2[nH]c3ccc(C4CCNCC4)cc3c2C(C)C)c1C [Example 30]
4. Cc1cc(-c2[nH]c3ccc(C4CCNCC4)cc3c2C(C)C)c([N+](=O)[O-])c(C)n1 [Example 27]
5. COc1c(-c2[nH]c3ccc(C4CCNCC4)cc3c2C(C)C)cc[n+]([O-])c1C [Example 57]
6. Cc1cc(-c2[nH]c3ccc(C4CCN(C(=O)CN5CCCC(C)(C)C5)CC4)cc3c2C(C)C)cc(C)n1 [Example 358]

[out]
[8.36, 8.19, 7.55, 7.82, 6.31, 7.89]

Items follow; give pIC50 for each.
1. Cc1cc(-c2[nH]c3ccc(C4CCN(CC(=O)NCC5CC5)CC4)cc3c2C(C)C)cc(C)n1 [Example 223]
2. Cc1cc(-c2[nH]c3ccc(C4CCN(CC(=O)N(C)C)CC4)cc3c2C(C)C)cc(C)n1 [Example 308]
3. Cc1cc(-c2[nH]c3ccc(C4CCN(C(=O)CNC(CO)CC(C)C)CC4)cc3c2C(C)C)cc(C)n1 (centres unmarked) [Example 382]

[out]
8.43
8.82
8.12

Items follow; give pIC50 for each.
1. Cc1cc(-c2[nH]c3cc(F)c(C4CCNCC4)cc3c2C(C)C)cc(C)n1 [Example 78]
2. Cc1cc(-c2[nH]c3ccc(C4CCN(C(=O)CC5C(=O)N(C)C(=O)N5C)CC4)cc3c2C(C)C)cc(C)n1 (centres unmarked) [Example 122]

[out]
1. 9.10
2. 8.17
